All values here come from patent US12441754B2.

# tgt: UniProtKB P17931
# assay_comment: fluorescence anisotropy assay, compound as inhibitor of galectin / fluorescein tagged saccharide probe interaction
# Type: binding
reported_endpoint: pKd
Hey, just a heads up that pKd is the negative log base 10 of the concentration in molar.

Worked set:
Incoming: Consider the compound shown here: OC[C@H]1O[C@H](Sc2cc(Cl)c(F)c(Cl)c2)C[C@@H](n2cc(-c3csc(O)n3)nn2)[C@H]1O What is its recorded pKd?
Outgoing: 5.03

Incoming: Next up: CO[C@@H]1[C@@H](n2cc(-c3nc(Cl)cs3)nn2)[C@@H](O)[C@@H](CO)O[C@@H]1Sc1cncc(Cl)c1
Outgoing: 6.47

Incoming: Repeat for the following compound: CO[C@@H]1[C@@H](n2cc(-c3nccs3)nn2)[C@@H](O)[C@@H](CO)O[C@@H]1Sc1cc(Cl)cnc1C#N
Outgoing: 5.92

Incoming: # iterate: OC[C@H]1O[C@H](Sc2ccc(Cl)c(Cl)c2)C[C@@H](n2cc(-c3csc(O)n3)nn2)[C@H]1O
Outgoing: 5.28

Incoming: How about N#Cc1ncc(Cl)cc1S[C@H]1O[C@H](CO)[C@H](O)[C@H](n2cc(-c3csc(N)n3)nn2)[C@H]1OCc1ccccc1 ?
Outgoing: 5.74

Continuing:
Incoming: Any idea what its pKd is? The compound is CO[C@@H]1[C@@H](n2cc(-c3csc(N)n3)nn2)[C@@H](O)[C@@H](CO)O[C@@H]1Sc1cnc(C(F)(F)F)c(C#N)c1
Outgoing: 4.78

Incoming: Would you kindly repeat that for CO[C@@H]1[C@@H](n2cc(-c3csc(N)n3)nn2)[C@@H](O)[C@@H](CO)O[C@@H]1Sc1cc(Cl)cnc1-c1ncco1 ?
Outgoing: 5.49

###

# assay_comment: CACO-2 model of uptake over the human intestine
# Assay type: in vitro ADME
# condition_parameters: human, Caco-2; A>B; read-out: Papp from the apical to the basolateral side (A>B)
reported_endpoint: Papp A→B
Hey, just the number and the unit after it is fine.

Incoming: Papp A→B for CO[C@@H]1[C@@H](n2cc(-c3nccs3)nn2)[C@@H](O)[C@@H](CO)O[C@@H]1Sc1cc(Cl)c(F)c(Cl)c1 ?
Outgoing: 20 ×10⁻⁶ cm/s

###

# assay_comment: CACO-2 model of uptake over the human intestine
# Type: in vitro ADME
# condition_parameters: human, Caco-2; B>A; read-out: Papp from the basolateral to the apical side B>A
reported_endpoint: Papp B→A (×10⁻⁶ cm/s)
Express your answer in ×10⁻⁶ cm/s, writing the number without its unit.

Incoming: What measured Papp B→A goes with CO[C@@H]1[C@@H](n2cc(-c3nccs3)nn2)[C@@H](O)[C@@H](CO)O[C@@H]1Sc1cc(Cl)c(F)c(Cl)c1 ?
Outgoing: 28

###

# tgt: Galectin-3 (Homo sapiens)
# Sequence (P17931 whole entry): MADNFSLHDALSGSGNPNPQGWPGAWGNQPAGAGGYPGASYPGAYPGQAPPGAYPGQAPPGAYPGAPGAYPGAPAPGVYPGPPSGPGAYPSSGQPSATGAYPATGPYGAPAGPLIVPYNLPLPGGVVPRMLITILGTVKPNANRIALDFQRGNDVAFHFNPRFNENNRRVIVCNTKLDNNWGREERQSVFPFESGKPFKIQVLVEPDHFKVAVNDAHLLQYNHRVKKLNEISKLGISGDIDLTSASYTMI
# assay_comment: fluorescence anisotropy assay, compound as inhibitor of galectin / fluorescein tagged saccharide probe interaction
reported_endpoint: Kd (µM)
Just the number in µM, nothing appended.

Study these solved cases before continuing.
Incoming: Form field - read-out: Kd; system: Galectin-3 (Homo sapiens); submitted item: N#Cc1ccc(S[C@@H]2C[C@@H](n3cc(-c4csc(O)n4)nn3)[C@@H](O)[C@@H](CO)O2)cc1Cl
Outgoing: 10.5

Incoming: // repeat for CO[C@@H]1[C@@H](n2cc(-c3csc(N)n3)nn2)[C@@H](O)[C@@H](CO)O[C@@H]1Sc1ccc(C(F)(F)F)c(Cl)c1 and report
Outgoing: 2.5

Incoming: Param item: CO[C@@H]1[C@@H](n2cc(-c3csc(O)n3)nn2)[C@@H](O)[C@@H](CO)O[C@@H]1Sc1cncc(C#N)c1
Outgoing: 5.7

Incoming: Now this one: N#Cc1ncc(Cl)cc1S[C@H]1O[C@H](CO)[C@H](O)[C@H](n2cc(-c3csc(N)n3)nn2)[C@H]1OCc1cc(F)c(O)c(F)c1
Outgoing: 0.74

Incoming: Continue with N#Cc1ncc(Cl)cc1S[C@H]1O[C@H](CO)[C@H](O)[C@H](n2cc(-c3nccs3)nn2)[C@H]1OCc1ccccc1
Outgoing: 1.8

Now look at this entry.
Incoming: Notebook entry, Galectin-3 (Homo sapiens) assay: Kd of CO[C@@H]1[C@@H](n2cc(-c3csc(N)n3)nn2)[C@@H](O)[C@@H](CO)O[C@@H]1Sc1ccc2ncsc2c1 = ?
Outgoing: 7.5
